Kindly state activity change, negative = inhibition for each of the entries shown.
assay: T. gondii ME49Luc in HeLa cells, luciferase assay, 72 h, no IFN-y (AID 1259421); conditions: hits give low values, concentration not given here
The whole screen tested about 6,400 compounds, of which about 610 (9.5%) were called active. The entries come from a sample that favours actives as a whole.
The answer is to be given in %; state only the numeric part.

*Q* Looking for the measured activity change, negative = inhibition of Cc1ncc(NC(=O)c2ccc(CN3CCN(C)CC3)c(C(F)(F)F)c2)cc1Nc1nccc(-c2cccnc2)n1 , can you help?
*A* -77.9

*Q* Please answer likewise for NC(N)=NC(=O)c1cnccn1
*A* 11.4

*Q* Please answer likewise for COc1ccc2c(c1OC)C(=O)O[C@@H]2C1c2c(cc3c(c2OC)OCO3)CCN1C (stereo partly specified)
*A* 8.49

*Q* Please answer likewise for OCc1cc2c(cn1)[nH]c1ccccc12
*A* 12.8

*Q* Please answer likewise for C=CC(=O)Nc1cccc(Nc2nc(Nc3ccc(OCCOC)cc3)ncc2F)c1
*A* -10

*Q* Please answer likewise for Cc1cnc(Nc2ccc(OCCN3CCCC3)cc2)nc1Nc1cccc(S(=O)(=O)NC(C)(C)C)c1
*A* -95.9

*Q* Please answer likewise for OC[C@@]1(O)OC[C@@H](O)[C@@H](O)[C@@H]1O
*A* 7.13

*Q* Please answer likewise for C=CC(=O)Nc1cccc(Oc2nc(Nc3ccc(N4CCN(C)CC4)cc3)ncc2Cl)c1
*A* -59.1

*Q* Please answer likewise for CC(=O)N1CCCC1C(=O)O (stereo unspecified)
*A* 6.22

*Q* Please answer likewise for CCOC(=O)c1cc(C#N)c(N2CCC(C(=O)NS(=O)(=O)Cc3ccccc3)CC2)nc1C
*A* 13.4

*Q* Please answer likewise for CC[C@@]1(O)C(=O)OCc2c1cc1n(c2=O)Cc2cc3c([N+](=O)[O-])cccc3nc2-1
*A* -85.8

*Q* Please answer likewise for COC(=O)C[C@H]1C(C)(C)[C@@H](OC(C)=O)[C@@H]2CC3=C4CC(=O)O[C@@H](c5ccoc5)[C@]4(C)CCC3[C@@]1(C)C2=O (stereo partly specified)
*A* 13.2

*Q* Please answer likewise for Cn1c(=O)cc(N2CCCC(N)C2)n(Cc2cc(F)ccc2C#N)c1=O (stereo unspecified)
*A* 0.449

*Q* Please answer likewise for Cc1ccc(C(=O)Nc2cccc(C(F)(F)F)c2)cc1Nc1nc(-c2cccnc2)nc2c1cnn2C
*A* -48.8

*Q* Please answer likewise for COc1cc(C)c2c(c1C=O)Oc1c(c(C)c(O)c3c1C(O)OC3=O)OC2=O (stereo unspecified)
*A* -5.42

*Q* Please answer likewise for C=CC(=O)Nc1cccc(Sc2nc(Nc3ccc(N4CCN(C)CC4)cc3)ncc2Cl)c1
*A* -58.5

*Q* Please answer likewise for CC(C)(C)[C@@]1(O)CCN2C[C@@H]3c4ccccc4CCc4cccc(c43)[C@H]2C1
*A* 13.9

*Q* Please answer likewise for CC1(O)C(O)C(CO)OC1n1cnc2c(NC3CCCC3)nc(Cl)nc21 (stereo unspecified)
*A* 13.4

*Q* Please answer likewise for O=C(Nc1c(-c2cccs2)nc2ccccn12)c1ccc(Cl)cc1
*A* 6.95

*Q* Please answer likewise for NC(Cc1ccccn1)c1ccccc1 (stereo unspecified)
*A* 13

*Q* Please answer likewise for Cc1cnc(Nc2ccc(N3CCN(C)CC3)cc2)nc1Nc1cccc(S(=O)(=O)NC(C)(C)C)c1
*A* -76.6

###

Kindly state activity change, negative = inhibition for each of the entries shown.
test: T. gondii ME49Luc in HeLa cells, luciferase assay, 72 h, no IFN-y (AID 1259421); settings: hits give low values, concentration not given here
The whole screen tested about 6,400 compounds, of which about 610 (9.5%) were called active. What follows is part of a selection rich in actives, with near analogues and random picks from the rest. *1 amine or outer side, *2 acyl side, *3 side chain or, on linkers, in order; H or OH if unused. Where a SMILES comes first, the peptide text is derived from it. Side-chain parts run from the residue outwards. [ ]: non-standard residue; d: D form. The star is where a group is joined. Ethylenediamine = C(CN[*:2])N[*:1]; Hyp = O=C(O)[C@@H]1C[C@@H](O)CN1; Phg = N[C@H](C(=O)O)c1ccccc1; CO = O=C([*:1])[*:2]; Bn = c1ccc(C*)cc1

*Q* Looking for the measured activity change, negative = inhibition of O=C(O)c1ccc(-c2c[nH]c3ncc(-c4ccccc4)cc23)cc1C1CCCC1 , can you help?
*A* -82.2% (active)

*Q* Please answer likewise for NCCNS(=O)(=O)c1cccc2cnccc12
*A* 1.67% (inactive)

*Q* Please answer likewise for CC(=O)O[C@]1(C(C)=O)CCC2C3C[C@H](C)C4=CC(=O)CC[C@]4(C)C3CC[C@@]21C (stereo partly specified)
*A* 15% (inactive)

*Q* Please answer likewise for NCCCC[C@@H]1NC(=O)[C@@H](Cc2c[nH]c3ccccc23)NC(=O)[C@H](c2ccccc2)NC(=O)[C@@H]2C[C@@H](OC(=O)NCCN)CN2C(=O)[C@H](Cc2ccccc2)NC(=O)[C@H](Cc2ccc(OCc3ccccc3)cc2)NC1=O (cyclo([Hyp]([CO-Ethylenediamine])[Phg][dW]KY(Bn)F))
*A* 9.07% (inactive)

*Q* Please answer likewise for NCCCCCCNS(=O)(=O)c1cccc2ccccc12
*A* 3.17% (inactive)

*Q* Please answer likewise for COc1cc2ncnc(Nc3ccc(Oc4ccccc4)cc3)c2cc1OC
*A* 2.86% (inactive)

###

assay: T. gondii ME49Luc in HeLa cells, luciferase assay, 72 h, no IFN-y (AID 1259421); settings: hits give low values, concentration not given here
Screen size: about 6,400 compounds; about 610 (9.5%) were called active. The sample as a whole holds a higher share of actives than the screen did.
test readout: activity change, negative = inhibition (%)
The answer is to be given in %; state only the numeric part.

*Q* Looking for the measured activity change, negative = inhibition of CCC(=O)NS(=O)(=O)c1ccc(-c2c(-c3ccccc3)noc2C)cc1 , can you help?
*A* 23.5

*Q* Please answer likewise for O=c1[nH]cnc2nc[nH]c12
*A* 7.14

*Q* Please answer likewise for CCC(C)C(=O)OC1CC(C)C=C2C=CC(C)C(CCC(O)CC(O)CC(=O)O)C21 (centres undefined)
*A* 7.4

*Q* Please answer likewise for Cc1csc(-c2nnc(Nc3ccc(Oc4ncccc4-c4ccnc(N)n4)cc3)c3ccccc23)c1
*A* -85.1

*Q* Please answer likewise for C=C[C@@H]1C[C@]1(NC(=O)[C@@H]1C[C@@H]2CN1C(=O)[C@H](C(C)(C)C)NC(=O)O[C@@H]1C[C@H]1CCCCCc1nc3ccc(OC)cc3nc1O2)C(=O)NS(=O)(=O)C1CC1
*A* 0.122

*Q* Please answer likewise for NC(N)=NCCN1CCCCCCC1
*A* 8.88

*Q* Please answer likewise for C=C[C@@H]1C[C@]1(NC(=O)[C@@H]1C[C@@H](Oc2ncc(OC)c3ccc(Cl)cc23)CN1C(=O)[C@@H](NC(=O)OC(C)(C)C)C(C)(C)C)C(=O)NS(=O)(=O)C1CC1
*A* -73.7

*Q* Please answer likewise for CC1CC2C3CC(F)C4=CC(=O)C=CC4(C)C3(F)C(O)CC2(C)C1(CC(=O)CO)C(=O)SCF (centres undefined)
*A* -4.39

*Q* Please answer likewise for OC[C@H]1O[C@H](O)C[C@@H](O)[C@@H]1O
*A* -36.7

###

experiment: T. gondii ME49Luc in HeLa cells, luciferase assay, 72 h, no IFN-y (AID 1259421); conditions: hits give low values, concentration not given here
Out of some 6,400 compounds screened, about 610 (9.5%) were called active. Shown is part of a subset that was picked to be rich in actives.
test readout: activity change, negative = inhibition (%)
The answer is to be given in %; state only the numeric part.

*Q* Looking for the measured activity change, negative = inhibition of O=C(O)CCC1CCC(c2cc(F)ccc2F)(S(=O)(=O)c2ccc(Cl)cc2)CC1 (stereo not drawn) , can you help?
*A* 7.06

*Q* Please answer likewise for CC(C)C[C@H](NC(=O)[C@@H](Cc1c[nH]c2ccccc12)NC(=O)[C@H](Cc1ccc(O)cc1)NC(=O)[C@H](CO)NC(=O)[C@H](Cc1c[nH]c2ccccc12)NC(=O)[C@H](Cc1cnc[nH]1)NC(=O)[C@@H]1CCC(=O)N1)C(=O)N[C@@H](CCCN=C(N)N)C(=O)N1CCC[C@H]1C(=O)NCC(N)=O
*A* -22.2

*Q* Please answer likewise for Cc1ccc2c(c1)C(=O)[C@]1(O)CCN(c3ccccc3)C1=N2
*A* 7.51

*Q* Please answer likewise for COc1ccc(-c2nc3ccc(C4=NNC(=O)CC4C)cc3[nH]2)cc1 (stereo not drawn)
*A* 21.8

*Q* Please answer likewise for CCCCCCCCCCCCC/C=C/[C@@H](O)[C@H](CO)NC(C)=O
*A* 16.6

*Q* Please answer likewise for Cc1ccccc1N=Nc1ccc(NC(=O)c2ccnn2C)c(C)c1
*A* -4.39

*Q* Please answer likewise for CCCCC(C=O)NC(=O)C(CC(C)C)NC(=O)OCc1ccccc1 (stereo not drawn)
*A* 10.2

*Q* Please answer likewise for CC(C)(N)C(=O)N[C@H](COCc1ccccc1)C(=O)N1CCC2(CC1)CN(S(C)(=O)=O)c1ccccc12
*A* 5.12
